src = PubChem BioAssay AID651690

- Assay System: Sentrin-specific protease 1 (Homo sapiens)
- Protocol Description: human SENP1 catalytic domain inhibitors, confirmation, biochemical, kinetic FRET, single concentration (AID 651690);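 further: 0% = DMSO with enzyme and 100% = no enzyme substrate only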
- Experimental Context: recombinant SENP1, CyPet-SUMO1-YPet FRET kinetic cleavage; at 10 µM; stronger effect = higher value
Some of the results follow.

{"columns": ["Molecule", "inhibition (%)"],
 "data": [
  ["O=[N+]([O-])c1ccc(N=NNc2ccc([N+](=O)[O-])cc2)cc1", 11.6],
  ["CCOC(=O)C1CCN(c2ncnc3c2c(-c2ccccc2)cn3-c2ccc(C)cc2)CC1", 10.2],
  ["Cc1cccc(C)c1Nc1c(-c2ccccc2O)nc2ncccn12", 8.55],
  ["O=C(CCN1C(=O)/C(=C/c2cccs2)SC1=S)NNC(=O)c1cccc(O)c1", 44.5],
  ["COc1ccc(OC)c(C2C3=C(N=c4s/c(=C\\c5cccc(O)c5)c(=O)n42)c2ccccc2CC3)c1 (stereo not given)", 19.3],
  ["Cc1ccc(C(=O)N/N=C\\c2cc(Br)c(Br)o2)cn1", 14.5],
  ["COc1ccc(N2C(=O)C3C(C2=O)C(C(=O)c2ccccc2)N2CCCC32)cc1 (stereo not given)", 23.7],
  ["O=C(NC(=O)c1ccccc1)Nc1ccccc1O", -0.175],
  ["CC(=O)c1cccc(-c2cnc3c(NC=O)cc(-c4ccc(N(C)C)cc4)cn23)c1", 48.5],
  ["Cn1c(-c2sc3cc(C(F)(F)F)cnc3c2-c2ccccc2)n[nH]c1=S", 11.8]
]}
